biological target: AAK1 (Homo sapiens, UniProt Q2M2I8); experiment: biochemical; parameters: kinase domain; Thermal shift assay (DSF, SYPRO Orange), 2 uM kinase domain, mean delta Tm of triplicates versus DMSO; details: read-out: AAK1
Sequence (Q2M2I8 27-365 limits assumed): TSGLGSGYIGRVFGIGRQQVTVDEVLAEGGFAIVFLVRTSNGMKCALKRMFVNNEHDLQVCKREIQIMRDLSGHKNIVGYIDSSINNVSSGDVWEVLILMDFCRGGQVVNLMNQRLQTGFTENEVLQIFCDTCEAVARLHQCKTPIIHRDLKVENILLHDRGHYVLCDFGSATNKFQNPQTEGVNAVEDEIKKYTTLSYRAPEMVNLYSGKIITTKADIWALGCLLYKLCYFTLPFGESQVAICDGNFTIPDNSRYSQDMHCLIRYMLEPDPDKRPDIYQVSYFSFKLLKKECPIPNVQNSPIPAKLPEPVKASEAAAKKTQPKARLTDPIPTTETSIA
metric: ΔTm at 12.5 µM (°C)

Cc1nc(Nc2n[nH]c3c2CN(C(=O)N[C@H](CN(C)C)c2ccccc2)C3(C)C)c2sccc2n1    5.65
CNC(=O)c1nn(C)c2c1C(C)(C)Cc1cnc(Nc3ccc(N4CCN(C)CC4)cc3)nc1-2    5.61
CN1CC[C@H](c2c(O)cc(O)c3c(=O)cc(-c4ccccc4Cl)oc23)[C@H](O)C1    1.86
S=C(NCc1ccc2c(c1)OCO2)N1CCN(c2ncnc3c2oc2ccccc23)CC1    1.93

I: CCc1cncnc1N1CCN(Cc2nc3ccc(C(F)(F)F)cc3[nH]2)CC1
II: CN(C)C/C=C/C(=O)Nc1cc2c(Nc3ccc(F)c(Cl)c3)ncnc2cc1O[C@H]1CCOC1
III: C#Cc1cccc(Nc2ncnc3cc(OC)c(OCCCCCCC(=O)NO)cc23)c1
IV: CNc1nc(-c2ccc3c(N)n[nH]c3c2)cc(N2C[C@@H](C(=O)NC3CCCCC3)CC[C@H]2C)n1
Incoming: Order by ΔTm at 12.5 µM, ascending. Reply format: the labels, ordered as requested.
Outgoing: I, III, II, IV

I: COc1ccc(-c2cc3c(C)nc(N)nc3n([C@H]3CC[C@H](OCCO)CC3)c2=O)cn1
II: COc1cc2/c(=N/c3ccc(Br)cc3F)nc[nH]c2cc1OCC1CCN(C)CC1
III: CNC(=O)c1cc(Oc2ccc(NC(=O)Nc3cc(C(C)(C)C)nn3-c3ccc4ncccc4c3)c(F)c2)ccn1
Incoming: Arrange these molecules by their ΔTm at 12.5 µM, starting with the largest number. Reply format: the labels, ordered as requested.
Outgoing: II, III, I

* * *

molecular target: GAK (Homo sapiens, UniProt O14976); construct: catalytic domain-containing construct; assay: biochemical; parameters: Thermal shift assay (DSF, SYPRO Orange), 2 uM kinase domain, mean delta Tm of triplicates versus DMSO; conditions: read-out: GAK
Sequence (O14976 whole entry, the tested form may be a part): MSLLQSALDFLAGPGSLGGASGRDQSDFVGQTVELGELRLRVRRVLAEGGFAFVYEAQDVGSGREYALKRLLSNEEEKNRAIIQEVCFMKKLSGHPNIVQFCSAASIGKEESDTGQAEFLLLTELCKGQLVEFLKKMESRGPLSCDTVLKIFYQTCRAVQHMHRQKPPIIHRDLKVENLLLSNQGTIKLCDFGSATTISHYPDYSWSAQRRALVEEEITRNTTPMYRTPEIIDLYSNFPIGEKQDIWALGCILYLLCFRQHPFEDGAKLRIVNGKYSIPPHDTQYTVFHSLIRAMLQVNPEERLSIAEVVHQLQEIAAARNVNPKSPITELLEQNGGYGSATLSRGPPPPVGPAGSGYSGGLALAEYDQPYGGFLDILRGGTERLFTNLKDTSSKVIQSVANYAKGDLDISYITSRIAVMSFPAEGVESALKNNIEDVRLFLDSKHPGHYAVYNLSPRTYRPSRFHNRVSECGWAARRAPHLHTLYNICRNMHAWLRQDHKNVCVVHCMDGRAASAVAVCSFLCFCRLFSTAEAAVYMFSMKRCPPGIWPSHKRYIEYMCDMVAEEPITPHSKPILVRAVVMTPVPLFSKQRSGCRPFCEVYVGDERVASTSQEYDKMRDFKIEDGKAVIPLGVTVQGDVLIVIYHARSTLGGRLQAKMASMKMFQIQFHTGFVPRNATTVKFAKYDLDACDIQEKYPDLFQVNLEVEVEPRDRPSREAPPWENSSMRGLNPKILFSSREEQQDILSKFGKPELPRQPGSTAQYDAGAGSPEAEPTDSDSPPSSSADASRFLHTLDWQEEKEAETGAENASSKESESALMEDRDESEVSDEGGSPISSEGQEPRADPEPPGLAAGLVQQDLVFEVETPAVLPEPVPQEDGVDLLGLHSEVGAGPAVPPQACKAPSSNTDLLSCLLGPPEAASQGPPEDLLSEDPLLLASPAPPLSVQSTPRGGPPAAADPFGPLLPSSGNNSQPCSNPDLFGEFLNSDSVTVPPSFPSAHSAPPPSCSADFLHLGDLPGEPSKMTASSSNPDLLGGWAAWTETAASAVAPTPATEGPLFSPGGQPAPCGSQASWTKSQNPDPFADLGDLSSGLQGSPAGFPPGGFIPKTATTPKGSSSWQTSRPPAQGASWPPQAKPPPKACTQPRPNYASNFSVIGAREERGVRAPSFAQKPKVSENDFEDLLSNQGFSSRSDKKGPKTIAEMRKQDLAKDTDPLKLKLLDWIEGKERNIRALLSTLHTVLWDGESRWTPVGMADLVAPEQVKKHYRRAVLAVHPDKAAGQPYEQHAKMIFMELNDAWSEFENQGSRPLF
metric: ΔTm at 12.5 µM (°C)

N#CC[C@H](C1CCCC1)n1cc(-c2ncnc3[nH]ccc23)cn1 [Ruxolitinib]    2.88
FC(F)c1nc2ccccc2n1-c1nc(N2CCOCC2)nc(N2CCOCC2)n1 [ZSTK474]    0.02
CC[C@H](Nc1ncnc2[nH]cnc12)c1nc2cccc(F)c2c(=O)n1-c1ccccc1 [Idelalisib]    1.01
CN1CCC(COc2cnc(-c3cccc(Cn4nc(-c5cccc(C#N)c5)ccc4=O)c3)nc2)CC1 [EMD1214063]    -0.86
Cn1c(Nc2ccc(C(F)(F)F)cc2)nc2cc(Oc3ccnc(-c4ncc(C(F)(F)F)[nH]4)c3)ccc21 [RAF265]    7.37
COc1cc2nccc(Oc3ccc(NC(=O)NC4CC4)c(Cl)c3)c2cc1C(N)=O [Lenvatinib]    2.03

A: C#Cc1cccc(Nc2ncnc3cc(OC)c(OCCCCCCC(=O)NO)cc23)c1 [CUDC-101]
B: COc1cc2c(N3CCN(C(=O)Nc4ccc(OC(C)C)cc4)CC3)ncnc2cc1OCCCN1CCCCC1 [Tandutinib]
Incoming: Given A and B , report the one with the higher recorded ΔTm at 12.5 µM. Refer to your chosen entry by its label in the reply.
Outgoing: A
(A: 2.77 °C, B: 0.06 °C)
